- study system: Alpha-1A adrenergic receptor (Rattus norvegicus) (UniProt P43140)
- Sequence (P43140 whole entry): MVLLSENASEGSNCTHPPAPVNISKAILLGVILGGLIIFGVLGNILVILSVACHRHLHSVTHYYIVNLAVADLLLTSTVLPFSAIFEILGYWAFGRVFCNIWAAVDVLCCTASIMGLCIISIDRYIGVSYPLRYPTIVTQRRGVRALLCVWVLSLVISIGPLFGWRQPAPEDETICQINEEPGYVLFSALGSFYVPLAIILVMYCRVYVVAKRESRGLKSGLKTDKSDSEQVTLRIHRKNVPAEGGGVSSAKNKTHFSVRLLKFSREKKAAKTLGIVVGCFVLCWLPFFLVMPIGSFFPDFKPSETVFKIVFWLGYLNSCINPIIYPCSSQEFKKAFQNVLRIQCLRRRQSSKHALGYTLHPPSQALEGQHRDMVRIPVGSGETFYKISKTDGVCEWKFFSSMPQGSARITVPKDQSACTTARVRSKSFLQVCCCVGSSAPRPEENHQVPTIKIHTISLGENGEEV
- protocol details: Antagonist activity at alpha1A adrenergic receptor in Wistar rat prostatic rat vas deferens assessed as inhibition of noradrenaline-induced contraction preincubated for 30 mins followed by noradrenaline addition measured after 45 mins in presence of cocaine hydrochloride
- Assay type: functional
quantity kind: pKb

* CCCN(CCC)c1nc(N2CCN(C(=O)c3ccco3)[C@@H]3CCCC[C@@H]32)nc2cc(OC)c(OC)cc12 | 7.02
* COc1cc2nc(N3CCN(C(=O)Cc4ccc5ccccc5c4)[C@H]4CCCC[C@H]43)nc(N)c2cc1OC | 6.56
* COc1cc2nc(N3CCN(C(=O)C(C)(C)C)[C@H]4CCCC[C@H]43)nc(N)c2cc1OC | 7.17
* CCCCCC(=O)N1CCN(c2nc(N)c3cc(OC)c(OC)cc3n2)[C@@H]2CCCC[C@@H]21 | 7.06
* CCCN(CCC)c1nc(N2CCN(C(=O)c3ccco3)[C@H]3CCCC[C@H]32)nc2cc(OC)c(OC)cc12 | 5.89
